# Test System: Integrin αvβ3 receptor (Homo sapiens, UniProt P05106+P06756)
# Sequence (P06756 31-889 limits assumed): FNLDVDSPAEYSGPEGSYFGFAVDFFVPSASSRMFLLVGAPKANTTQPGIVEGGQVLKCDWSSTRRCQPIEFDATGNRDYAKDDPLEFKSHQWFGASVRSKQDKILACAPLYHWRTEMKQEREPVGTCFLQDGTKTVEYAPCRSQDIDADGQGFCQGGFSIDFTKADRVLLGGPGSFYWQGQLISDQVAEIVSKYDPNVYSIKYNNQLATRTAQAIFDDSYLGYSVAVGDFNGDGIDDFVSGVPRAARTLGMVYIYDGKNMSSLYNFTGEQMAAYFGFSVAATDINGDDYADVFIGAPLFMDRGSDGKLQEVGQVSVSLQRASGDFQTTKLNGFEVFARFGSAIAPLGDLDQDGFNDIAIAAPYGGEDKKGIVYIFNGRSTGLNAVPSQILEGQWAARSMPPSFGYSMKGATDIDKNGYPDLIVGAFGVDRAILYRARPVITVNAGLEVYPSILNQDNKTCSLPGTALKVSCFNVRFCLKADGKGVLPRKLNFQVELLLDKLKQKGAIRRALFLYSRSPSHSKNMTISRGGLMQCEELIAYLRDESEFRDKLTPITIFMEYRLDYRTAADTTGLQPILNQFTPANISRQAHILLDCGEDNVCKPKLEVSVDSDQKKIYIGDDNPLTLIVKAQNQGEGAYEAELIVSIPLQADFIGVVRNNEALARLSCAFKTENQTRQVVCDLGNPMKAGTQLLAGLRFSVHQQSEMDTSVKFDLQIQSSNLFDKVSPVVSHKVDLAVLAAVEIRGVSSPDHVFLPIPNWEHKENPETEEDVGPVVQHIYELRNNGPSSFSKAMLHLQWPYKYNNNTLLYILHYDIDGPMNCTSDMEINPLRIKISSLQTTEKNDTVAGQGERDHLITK
# Sequence (P06756 891-1048 partner limits assumed): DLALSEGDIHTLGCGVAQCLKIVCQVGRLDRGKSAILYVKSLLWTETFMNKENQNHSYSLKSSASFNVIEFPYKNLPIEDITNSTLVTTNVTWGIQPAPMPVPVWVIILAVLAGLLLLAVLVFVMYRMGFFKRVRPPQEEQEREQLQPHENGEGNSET
# Sequence (P05106 27-788): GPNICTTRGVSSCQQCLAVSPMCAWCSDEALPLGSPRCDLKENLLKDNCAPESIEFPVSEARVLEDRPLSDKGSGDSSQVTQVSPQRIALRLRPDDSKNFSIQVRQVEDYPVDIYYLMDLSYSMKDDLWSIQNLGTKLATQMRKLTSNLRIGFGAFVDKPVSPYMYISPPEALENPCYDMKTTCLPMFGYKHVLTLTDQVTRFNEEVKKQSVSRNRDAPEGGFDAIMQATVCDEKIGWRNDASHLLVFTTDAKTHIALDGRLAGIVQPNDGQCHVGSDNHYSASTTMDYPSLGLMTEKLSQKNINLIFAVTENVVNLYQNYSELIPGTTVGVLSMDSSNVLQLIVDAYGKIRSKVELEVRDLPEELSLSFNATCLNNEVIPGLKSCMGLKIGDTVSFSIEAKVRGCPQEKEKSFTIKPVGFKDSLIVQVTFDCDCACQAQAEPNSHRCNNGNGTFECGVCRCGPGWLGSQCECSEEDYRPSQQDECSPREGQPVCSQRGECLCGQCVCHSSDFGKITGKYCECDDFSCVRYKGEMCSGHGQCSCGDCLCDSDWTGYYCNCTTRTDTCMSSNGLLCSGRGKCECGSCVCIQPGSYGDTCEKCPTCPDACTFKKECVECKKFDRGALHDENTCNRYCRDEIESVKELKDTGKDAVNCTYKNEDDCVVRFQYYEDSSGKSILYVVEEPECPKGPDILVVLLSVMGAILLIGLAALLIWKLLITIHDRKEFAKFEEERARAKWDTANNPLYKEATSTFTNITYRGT
# Experimental Details: Selection of Library 1 and Library 2 (61,875 members each) for binders of the Integrin αvβ3 receptor, then building block abundance analysis
# Type: binding
# Conditions Used: building block chosen for Library 3 position 2; value = library (1, 2) in which it was more abundant after selection
Observable: More abundant in position 2 in library no.
I only need the number, thanks.

Ask: Please give the measured More abundant in position 2 in library no. for this molecule: C=CCCC(=O)NCC(=O)O [BBA0000592]
Result: 1

###

# Test System: integrin aVβ3 (Homo sapiens, UniProt P05106+P06756)
# Experimental Details: Selection of the 700-member encoded library on immobilised integrin aVβ3, then PCR, cloning and sequencing of identifier codons
# Format: binding
# Conditions Used: 700-member library after selection; out of 51 sequences; single building block at its position
Observable: Count (times the chemical entity's codon was seen after selection)

CC(CCC(=O)O)Nc1ccccn1 (stereo not shown) | 9

Ask: Please give the measured Count (times the chemical entity's codon was seen after selection) for this compound: C=CCCC(=O)NCc1cccc(C(=O)O)c1
Result: 1

Ask: Please give the measured Count (times the chemical entity's codon was seen after selection) for this compound: C=CCCC(=O)N1CCC[C@H]1C(=O)O
Result: 1

Ask: Please give the measured Count (times the chemical entity's codon was seen after selection) for this compound: C=CCCC(=O)N[C@H]1CCCC[C@H]1C(=O)O
Result: 1

Ask: Please give the measured Count (times the chemical entity's codon was seen after selection) for this compound: C=CCCC(=O)N[C@H]1CC[C@@H](C(=O)O)C1
Result: 2

Ask: Please give the measured Count (times the chemical entity's codon was seen after selection) for this compound: N[C@@H](CC(=O)O)C(=O)O
Result: 47

Ask: Please give the measured Count (times the chemical entity's codon was seen after selection) for this compound: C=CCCC(=O)NCc1ccc(C(=O)O)cc1
Result: 2

###

# Test System: integrin aVβ3 (Homo sapiens, UniProt P05106+P06756)
# Experimental Details: Selection of the 700-member encoded library on immobilised integrin aVβ3, then PCR, cloning and sequencing of identifier codons
# Format: binding
# Conditions Used: 700-member library after selection; out of 51 sequences; single building block at its position
Observable: Count (times the chemical entity's codon was seen after selection)
I only need the number, thanks.

Sample answers from the record:
C=CCCC(=O)N(CCC)CCC(=O)O [BBA0001101] | 2
C=CCCC(=O)N[C@@H](C)CC(=O)O [BBA000099, Gly] | 14
C=CCCC(=O)N1CCCC[C@H]1C(=O)O [BBA0004232] | 2
CC(C)(C)OC(=O)NC(CCCCNC(=O)c1ccccn1)C(=O)O (stereo not drawn) [BBA0008312] | 1
C=CCCC(=O)N1CCC[C@@H]1C(=O)O [BBA000064] | 1

Ask: Please give the measured Count (times the chemical entity's codon was seen after selection) for this compound: C=CCCC(=O)N1CC(C(=O)O)C1 [BBA0001582]
Result: 13

###

# Test System: integrin aVβ3 (Homo sapiens, UniProt P05106+P06756)
# Experimental Details: Selection of the 700-member encoded library on immobilised integrin aVβ3, then PCR, cloning and sequencing of identifier codons
# Type: binding
# Conditions Used: 700-member library after selection; out of 51 sequences; single building block at its position
Each entry gets n if its Count (times the chemical entity's codon was seen after selection) stays under 4, and y if its Count (times the chemical entity's codon was seen after selection) is 4 or above.

C=CCCC(=O)NCCCC(=O)O | y

Ask: Threshold query (Count (times the chemical entity's codon was seen after selection) >= 4) on C=CCCC(=O)N1CCCC[C@@H]1C(=O)O
Result: y

Ask: Threshold query (Count (times the chemical entity's codon was seen after selection) >= 4) on C=CCCC(=O)C(CCC(=O)O)CC1CC1 (stereo not drawn)
Result: n

Ask: Threshold query (Count (times the chemical entity's codon was seen after selection) >= 4) on O=C(O)CCCNc1ccccn1
Result: y

Ask: Threshold query (Count (times the chemical entity's codon was seen after selection) >= 4) on O=C(O)c1csc(-c2cccnc2)n1
Result: n

###

# Lookup of reported More abundant in position 3 in library no. keyed by entry
# Test System: Integrin αvβ3 receptor (Homo sapiens, UniProt P05106+P06756)
# Experimental Details: Selection of Library 1 and Library 2 (61,875 members each) for binders of the Integrin αvβ3 receptor, then building block abundance analysis
# Assay type: binding
# Conditions Used: building block chosen for Library 3 position 3; value = library (1, 2) in which it was more abundant after selection
I only need the number, thanks.

CC(CCCC(=O)O)Nc1ccccn1 (stereo not shown) | 2

Ask: Quick check: More abundant in position 3 in library no. on Integrin αvβ3 receptor (Homo sapiens, UniProt P05106+P06756), item N[C@@H](CC(=O)O)C(=O)O ?
Result: 1

Ask: Quick check: More abundant in position 3 in library no. on Integrin αvβ3 receptor (Homo sapiens, UniProt P05106+P06756), item O=C(O)CCCNc1ccccn1 ?
Result: 2

Ask: Quick check: More abundant in position 3 in library no. on Integrin αvβ3 receptor (Homo sapiens, UniProt P05106+P06756), item CC(CCC(=O)O)Nc1ccccn1 (stereo not shown) ?
Result: 2

###

# Lookup of reported More abundant in position 2 in library no. keyed by entry
# Test System: Integrin αvβ3 receptor (Homo sapiens, UniProt P05106+P06756)
# Experimental Details: Selection of Library 1 and Library 2 (61,875 members each) for binders of the Integrin αvβ3 receptor, then building block abundance analysis
# Assay type: binding
# Conditions Used: building block chosen for Library 3 position 2; value = library (1, 2) in which it was more abundant after selection
I only need the number, thanks.

C=CCCC(=O)N[C@@H]1CC[C@H](C(=O)O)C1 [BBA0004222] | 2
N[C@H](CC(=O)O)C(=O)O [BBA000152, D-Asp] | 2

Ask: Please give the measured More abundant in position 2 in library no. for this compound: C=CCCC(=O)N1CCCC(C(=O)O)C1 (stereo not drawn) [BBA0000832]
Result: 1
